system: T1, human GPC3-his tag protein (human, UniProt P51654 25-559, limits assumed)
T1 construct: recombinant soluble antigen used as analyte in all Biacore runs; also called recombinant GPC3 protein; rhGPC3-His; not shown: His tag
experimental_details: SPR Biacore 8K, mAb captured, affinity ranking

binder	kon
Hu 52H5D3B8-3 (antibody, V domains shown, humanized 52H5D3B8; also called 52H5D3B8 VH1 + VL0) VH: EVQLVQSGAEVKKPGASVKVSCKASGYTFTDYEMHWVRQAPGQGLEWMGAIHPGSGGTAYNQKFKGRVTMTRDTSISTAYMELSRLRSDDTAVYYCTRFYSYAYWGQGTLVTVSS VL: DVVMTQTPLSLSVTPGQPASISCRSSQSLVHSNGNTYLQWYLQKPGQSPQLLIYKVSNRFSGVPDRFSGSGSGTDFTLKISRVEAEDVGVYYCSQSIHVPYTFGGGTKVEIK	405000 M⁻¹ s⁻¹
Hu 52H5D3B8-10 (antibody, V domains shown, humanized 52H5D3B8; also called 52H5D3B8 VH4 + VL1) VH: EVQLVQSGAEVKKPGASVKVSCKASGYTFTDYEMHWVRQAPGQGLEWIGAIHPGSGGTAYNQKFKGRVTLTADKSISTAYMELSRLRSDDTAVYYCTRFYSYAYWGQGTLVTVSS VL: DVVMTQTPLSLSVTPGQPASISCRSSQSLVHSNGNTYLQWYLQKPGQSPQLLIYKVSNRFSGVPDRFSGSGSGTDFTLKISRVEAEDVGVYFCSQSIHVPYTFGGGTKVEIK	267000 M⁻¹ s⁻¹
Hu 52H5D3B8-9 (antibody, V domains shown, humanized 52H5D3B8; also called 52H5D3B8 VH4 + VL0) VH: EVQLVQSGAEVKKPGASVKVSCKASGYTFTDYEMHWVRQAPGQGLEWIGAIHPGSGGTAYNQKFKGRVTLTADKSISTAYMELSRLRSDDTAVYYCTRFYSYAYWGQGTLVTVSS VL: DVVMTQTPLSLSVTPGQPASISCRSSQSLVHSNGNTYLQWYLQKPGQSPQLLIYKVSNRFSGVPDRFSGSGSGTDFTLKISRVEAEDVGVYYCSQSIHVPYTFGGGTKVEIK	244000 M⁻¹ s⁻¹
Hu 52H5D3B8-7 (antibody, V domains shown, humanized 52H5D3B8; also called 52H5D3B8 VH3 + VL0) VH: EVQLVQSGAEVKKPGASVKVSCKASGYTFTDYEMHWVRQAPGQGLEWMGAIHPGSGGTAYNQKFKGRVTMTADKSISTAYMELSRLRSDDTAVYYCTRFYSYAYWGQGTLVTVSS VL: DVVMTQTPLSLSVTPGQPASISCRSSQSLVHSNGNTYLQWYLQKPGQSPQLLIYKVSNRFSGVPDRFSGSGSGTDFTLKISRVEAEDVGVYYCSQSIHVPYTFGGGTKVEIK	320000 M⁻¹ s⁻¹
Hu 52H5D3B8-12 (antibody, V domains shown, humanized 52H5D3B8; also called 52H5D3B8 VH5 + VL1) VH: EVQLVQSGAEVKKPGASVKVSCKASGYTFTDYEMHWVRQAPGQGLEWIGAIHPGSGGTAYNQKFKGKATLTADKSISTAYMELSRLRSDDTAVYYCTRFYSYAYWGQGTLVTVSS VL: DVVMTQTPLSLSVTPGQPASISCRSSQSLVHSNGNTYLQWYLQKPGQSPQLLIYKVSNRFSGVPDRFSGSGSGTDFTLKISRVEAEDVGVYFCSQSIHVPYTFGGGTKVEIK	310000 M⁻¹ s⁻¹
